molecular target: TrkA receptor (Homo sapiens); test: DiscoverX PathHunter TrkA functional assay (NGF-stimulated U2OS cells); settings: U2OS cells expressing TrkA-Prolink fusion and Shc1-EA; compound 1 hour, then EC80 NGF 3 hours; luminescence
Sequence (P04629 33-796): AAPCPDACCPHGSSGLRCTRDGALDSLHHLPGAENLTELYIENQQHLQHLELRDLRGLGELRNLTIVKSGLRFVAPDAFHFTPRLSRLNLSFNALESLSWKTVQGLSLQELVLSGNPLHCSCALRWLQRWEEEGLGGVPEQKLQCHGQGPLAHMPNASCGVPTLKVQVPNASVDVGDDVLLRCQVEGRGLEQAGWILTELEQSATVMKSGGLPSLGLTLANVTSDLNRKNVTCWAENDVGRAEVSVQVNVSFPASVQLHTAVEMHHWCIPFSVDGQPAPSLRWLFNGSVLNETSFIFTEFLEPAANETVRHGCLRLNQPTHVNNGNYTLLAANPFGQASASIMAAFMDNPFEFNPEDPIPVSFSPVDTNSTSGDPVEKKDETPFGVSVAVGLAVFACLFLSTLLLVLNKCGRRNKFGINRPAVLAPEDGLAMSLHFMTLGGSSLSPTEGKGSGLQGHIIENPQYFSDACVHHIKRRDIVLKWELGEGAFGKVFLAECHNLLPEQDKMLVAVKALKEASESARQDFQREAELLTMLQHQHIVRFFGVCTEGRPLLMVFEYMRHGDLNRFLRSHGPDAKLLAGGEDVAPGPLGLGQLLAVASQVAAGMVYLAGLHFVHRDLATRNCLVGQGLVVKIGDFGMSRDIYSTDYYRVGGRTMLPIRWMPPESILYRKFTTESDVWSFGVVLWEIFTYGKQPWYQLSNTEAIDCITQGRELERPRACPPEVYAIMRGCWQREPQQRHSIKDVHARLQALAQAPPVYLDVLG
reported-endpoint: IC50 (nM)

Below: 6 compounds and their reported IC50.
compound: O=C(Nc1ncnn1-c1ccccc1)NC1c2ccccc2-c2ccccc21 [Compound 67]
IC50 / nM: 4800
--
compound: O=C(Nc1cncc(-c2cccnc2)c1)NC1c2ccccc2-c2ccccc21 [Compound 72]
IC50 / nM: 1400
--
compound: Cc1nc(NC(=O)NC2c3ccccc3-c3ccccc32)n(-c2ccccc2)n1 [Compound 78]
IC50 / nM: 520
--
compound: Cc1cc(NC(=O)NC2c3ccccc3-c3ccccc32)n(-c2ccccc2)n1 [Compound 7]
IC50 / nM: 44
--
compound: Cn1ccnc1-c1cc(NC(=O)NC2c3ccccc3-c3ccccc32)n(C)n1 [Compound 85]
IC50 / nM: 100
--
compound: Cc1nc(-c2ccccc2)c(NC(=O)NC2c3ccccc3-c3ccccc32)o1 [Compound 81]
IC50 / nM: 3900

[A] O=C(Nc1cccnc1-c1ccc(F)cc1)NC1c2ccccc2-c2ccccc21 [Compound 52]
[B] O=C(Nc1ccccc1N1CCOCC1)NC1c2ccccc2-c2ccccc21 [Compound 35]
Given A and B , report the one with the higher recorded IC50. To answer, give the label that identifies your chosen option. B
(B: 4000 nM, A: 100 nM)
